Data credit: patent US20200246316A1

experiment: Cytotoxicity by lactate dehydrogenase (LDH) release; assay type: cell-based; conditions: human, Caco-2 cells; read-out: percent cytotoxicity (LDH release)
Structures can show the parent of a compound that is named as a salt.
property.label: cytotoxicity

QUERY: Provide measured cytotoxicity value, entry: CC1(C)SC(Nc2ccccc2O)=N[C@@H]1C(=O)O [Compound 1, mono-hydrochloride]
RESULT: < 25%

* * *

assay: Rat 7-day repeat dose PO study (toxicokinetics, MTD); type: in vivo; settings: both sexes, Sprague Dawley (Hsd:SD), rat, in vivo, po, 2000 mg/kg, Seventh Daily Dose, 2000 mg/kg PO; read-out: Cmax (mean)
Where a name gives a salt, the structure may show the parent alone.
property.label: Cmax

QUERY: Provide measured Cmax value, entry: CC1(C)SC(Nc2ccccc2O)=N[C@@H]1C(=O)O [Compound 1, mono-hydrochloride]
RESULT: 119 µg/mL

* * *

assay: Rat 28-day GLP repeat dose PO study (toxicokinetics); assay type: in vivo; conditions: female, rat, in vivo, po, 1000 mg/kg, Day 14, F, 1000 mg/kg PO; read-out: Cmax
Where a name gives a salt, the structure may show the parent alone.
property.label: Cmax (µg/mL)
Numbers only, in µg/mL.

QUERY: Provide measured Cmax value, entry: CC1(C)SC(Nc2ccccc2O)=N[C@@H]1C(=O)O [Compound 1, mono-hydrochloride]
RESULT: 96.3

* * *

test: Dog 28-day repeat dose PO study; assay type: in vivo; details: male, beagle, dog, in vivo, po, 100 mg/kg, Day 28, 100 mg/kg PO, M; read-out: Cmax
Structures can show the parent of a compound that is named as a salt.
property.label: Cmax (ng/mL)
Numbers only, in ng/mL.

QUERY: Provide measured Cmax value, entry: CC1(C)SC(Nc2ccccc2O)=N[C@@H]1C(=O)O [Compound 1, mono-hydrochloride]
RESULT: 45000

* * *

Biological target: BCRP (Homo sapiens)
Sequence (Q9UNQ0 1-655): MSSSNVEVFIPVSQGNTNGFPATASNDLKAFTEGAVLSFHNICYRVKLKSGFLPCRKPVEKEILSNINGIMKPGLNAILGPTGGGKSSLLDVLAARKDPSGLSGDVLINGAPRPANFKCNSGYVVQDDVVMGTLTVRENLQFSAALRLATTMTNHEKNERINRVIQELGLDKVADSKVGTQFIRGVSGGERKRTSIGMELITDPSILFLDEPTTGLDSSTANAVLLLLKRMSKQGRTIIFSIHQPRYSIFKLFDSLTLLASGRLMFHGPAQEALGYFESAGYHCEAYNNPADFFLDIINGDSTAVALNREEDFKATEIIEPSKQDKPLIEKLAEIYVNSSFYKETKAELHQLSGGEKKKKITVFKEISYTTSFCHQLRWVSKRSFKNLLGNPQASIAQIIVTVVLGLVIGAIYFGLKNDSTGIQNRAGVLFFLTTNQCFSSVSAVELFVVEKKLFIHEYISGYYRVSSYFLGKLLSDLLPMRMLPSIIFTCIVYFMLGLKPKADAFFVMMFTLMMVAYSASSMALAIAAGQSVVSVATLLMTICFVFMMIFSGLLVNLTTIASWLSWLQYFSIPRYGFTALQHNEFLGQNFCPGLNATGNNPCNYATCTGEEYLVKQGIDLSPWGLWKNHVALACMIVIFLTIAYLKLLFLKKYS
Experiment: Inhibition of efflux (ABC) transporters
Structures can show the parent of a compound that is named as a salt.
property.label: IC50

QUERY: Provide measured IC50 value, entry: CC1(C)SC(Nc2ccccc2O)=N[C@@H]1C(=O)O [Compound 1, mono-hydrochloride]
RESULT: > 30 µM

* * *

Experiment: Rat 28-day GLP repeat dose PO study (toxicokinetics)
Assay type: in vivo
Conditions: male, rat, in vivo, po, 1000 mg/kg, Day 14, M, 1000 mg/kg PO; read-out: Cmax
Protocol: The vehicle was 0.5% HPMC. There were 15 rats/sex in the control and high dose groups (5/sex for a 14-day recovery period) while the low and mid doses consisted of 10 rats/sex. Satellite groups of rats/sex/group for toxicokinetics were included. Rats in Group 1 (Vehicle Control) were bled once at approximately 1 hour post-dose on those days.
Counter-ions that a name gives are not always drawn.
property.label: Cmax (µg/mL)
One number for each entry, in µg/mL.

QUERY: Provide measured Cmax value, entry: CC1(C)SC(Nc2ccccc2O)=N[C@@H]1C(=O)O [Compound 1, mono-hydrochloride]
RESULT: 51.9

* * *

assay: Dog pharmacokinetics after single PO (10 mg/kg) and IV (3 mg/kg) dose; type: in vivo; conditions: male, dog, plasma; 10 mg/kg PO vs 3 mg/kg IV; read-out: oral bioavailability range
Counter-ions that a name gives are not always drawn.
property.label: bioavailability

QUERY: Provide measured bioavailability value, entry: CC1(C)SC(Nc2ccccc2O)=N[C@@H]1C(=O)O [Compound 1, mono-hydrochloride]
RESULT: 56 to 91%

* * *

test: Rat 28-day GLP repeat dose PO study (toxicokinetics); assay type: in vivo; details: female, rat, in vivo, po, 2000 mg/kg, Day 1, F, 2000 mg/kg PO; read-out: CL/F (CLz/F) (converted)
Where a name gives a salt, the structure may show the parent alone.
property.label: CL/F (mL/min/kg)
Numbers only, in mL/min/kg.

QUERY: Provide measured CL/F value, entry: CC1(C)SC(Nc2ccccc2O)=N[C@@H]1C(=O)O [Compound 1, mono-hydrochloride]
RESULT: 25.2

* * *

test: Rat 28-day GLP repeat dose PO study (toxicokinetics); type: in vivo; details: female, rat, in vivo, po, 1000 mg/kg, Day 28, F, 1000 mg/kg PO
Where a name gives a salt, the structure may show the parent alone.
property.label: AUC(0-inf) (µg·h/mL)
Numbers only, in µg·h/mL.

QUERY: Provide measured AUC(0-inf) value, entry: CC1(C)SC(Nc2ccccc2O)=N[C@@H]1C(=O)O [Compound 1, mono-hydrochloride]
RESULT: 741

* * *

assay: Rat 28-day GLP repeat dose PO study (toxicokinetics); type: in vivo; details: male, rat, in vivo, po, 500 mg/kg, Day 14, M, 500 mg/kg PO; read-out: tmax
Counter-ions that a name gives are not always drawn.
property.label: Tmax (h)
Numbers only, in h.

QUERY: Provide measured Tmax value, entry: CC1(C)SC(Nc2ccccc2O)=N[C@@H]1C(=O)O [Compound 1, mono-hydrochloride]
RESULT: 1

* * *

experiment: in vivo; conditions: male, Sprague Dawley, rat, po, 100 mg/kg, Compound 1 Concentration in rat plasma, 100 mg/kg single PO, 2 h post-dose, individual animals
Structures can show the parent of a compound that is named as a salt.
property.label: concentration at 2 h

QUERY: Provide measured concentration at 2 h value, entry: CC1(C)SC(Nc2ccccc2O)=N[C@@H]1C(=O)O [Compound 1, mono-hydrochloride]
RESULT: 16300 ng/mL

* * *

experiment: Dog 28-day repeat dose PO study; assay type: in vivo; settings: both sexes, beagle, dog, in vivo, po, t1/2
Counter-ions that a name gives are not always drawn.
property.label: half-life

QUERY: Provide measured half-life value, entry: CC1(C)SC(Nc2ccccc2O)=N[C@@H]1C(=O)O [Compound 1, mono-hydrochloride]
RESULT: ~3.5 h

* * *

test: Rat 28-day GLP repeat dose PO study (toxicokinetics); format: in vivo; details: male, rat, in vivo, po, 2000 mg/kg, Day 28, M, 2000 mg/kg PO; read-out: t1/2 (converted)
Structures can show the parent of a compound that is named as a salt.
property.label: half-life

QUERY: Provide measured half-life value, entry: CC1(C)SC(Nc2ccccc2O)=N[C@@H]1C(=O)O [Compound 1, mono-hydrochloride]
RESULT: 3.53 h

* * *

assay: Dog 28-day repeat dose PO study; assay type: in vivo; conditions: male, beagle, dog, in vivo, po, 100 mg/kg, Day 1, 100 mg/kg PO, M; read-out: Cmax
Structures can show the parent of a compound that is named as a salt.
property.label: Cmax (ng/mL)
Give bare numbers, in ng/mL.

QUERY: Provide measured Cmax value, entry: CC1(C)SC(Nc2ccccc2O)=N[C@@H]1C(=O)O [Compound 1, mono-hydrochloride]
RESULT: 49900

* * *

assay: Rat 28-day GLP repeat dose PO study (toxicokinetics); type: in vivo; settings: female, rat, in vivo, po, 2000 mg/kg, Day 1, F, 2000 mg/kg PO; read-out: V/F (Vz/F)
Where a name gives a salt, the structure may show the parent alone.
property.label: Vd/F (L/kg)
Give bare numbers, in L/kg.

QUERY: Provide measured Vd/F value, entry: CC1(C)SC(Nc2ccccc2O)=N[C@@H]1C(=O)O [Compound 1, mono-hydrochloride]
RESULT: 17.6

* * *

test: Dog 28-day repeat dose PO study; type: in vivo; conditions: female, beagle, dog, in vivo, po, 250 mg/kg, Day 15, 250 mg/kg PO, F; read-out: Cmax
Counter-ions that a name gives are not always drawn.
property.label: Cmax
Give the value; after it, write the unit.

QUERY: Provide measured Cmax value, entry: CC1(C)SC(Nc2ccccc2O)=N[C@@H]1C(=O)O [Compound 1, mono-hydrochloride]
RESULT: 94.6 µg/mL
